All figures here come from the supplement of paper PMC12764529.

- Experiment Notes: folding stability dG unfold (combined trypsin and chymotrypsin); higher = more stable
# maps each entry to its folding stability dG unfold
# output: bare number, implied unit kcal/mol

| Sequence | Units Of Measure | folding stability dG unfold |
| --- | --- | --- |
| SAGGSAGGSAGKYEVTKIEVVKNEDGSEYLRVTIKVDGKEITITIPLEDAENIKIEIKPPSAGGSAGGSAGG [r17_64_TrROS_Hall] | kcal/mol | 3.38 |
| SAGKTVEIKVTLKITRYEKLPDGSVKKEVKTLTITVTMSEEELNKEEIKNALKELLEKLPPDVKKIEITSAG [r5_849_TrROS_Hall] | kcal/mol | 4.34 |
| SAGGSAGGSFKAPPGEKYVLKLRSPENGQEFMVEFTPDNIKISNPNDEKMPFPPDDITDVKDVSAGGSAGGS [r20_35_TrROS] | kcal/mol | -0.109 |
| SAGGSAGGGFILEVDPEKGVAVAYFDPSTGEVVVAVPEGPVYRFASAEEVVAATGKPVVIVPATSAGGSAGG [r6_752_TrMRF] | kcal/mol | 0.966 |
| SAGGSAGGSAGGGLVPIPVNAILLDENGVPKGTFDGYPLLKAGIPLEEFAKKYGFKVETSAGGSAGGSAGGS [r10_153_TrMRF] | kcal/mol | -0.552 |

Next up:
Ask: Please list folding stability dG unfold recorded for the sequence SAGGSAGGSAGKKTYKLVIPVKPDKTVEEIAEEVKKLLGPGSKVEVEEKEDGFATVYVESSAGGSAGGSAGG [r17_20_TrMRF]
Result: 0.555
